- Test system: Rats
- assay remarks: anti-inflammatory activity, carrageenan paw
- Type: in vivo, rat
- measurement setup: i.p., 10 mg/kg, 30 min before carrageenan; swelling after 3 hours
Counter-ions that a name gives are not always drawn.
Please go through the items and note down their Carrageenan Paw (% inh) i.p..
Unit % implied. Number only.

In: Recall the recorded Carrageenan Paw (% inh) i.p. for `OCC1(CO)O[C@@H](n2cc(-c3ccccc3)c3c(Nc4ccccc4)ncnc32)[C@H](O)[C@@H]1O` with Rats and state it.
Out: 3

In: For the record `O[C@@H]1[C@H](O)CO[C@H]1n1cc(-c2ccccc2)c2c(Nc3ccc(Cl)cc3)ncnc21` , what value of Carrageenan Paw (% inh) i.p. is listed for Rats?
Out: 20

In: Requested read-out Carrageenan Paw (% inh) i.p., target or system Rats, entry `O[C@@H]1[C@H](O)CO[C@H]1n1cc(-c2ccccc2)c2c(Nc3ccc(F)cc3)ncnc21`
Out: 52

In: Query for Rats: what Carrageenan Paw (% inh) i.p. does the record show for `Nc1ncnc2c1c(I)cn2[C@@H]1OC[C@@H](O)[C@H]1O` ?
Out: 90

In: Give the reported Carrageenan Paw (% inh) i.p. for `O[C@@H]1[C@H](O)CO[C@H]1n1cc(-c2ccccc2)c2c(Nc3ccccc3)ncnc21` (system: Rats).
Out: 44

In: Give recorded Carrageenan Paw (% inh) i.p. with Rats for the following compound: `O[C@@H]1[C@H](O)CO[C@H]1n1nc(-c2ccc(Cl)cc2)c2c(Nc3ccccc3)ncnc21`
Out: 24

In: Which measured Carrageenan Paw (% inh) i.p. belongs to `O[C@H]1[C@H](n2cc(-c3ccccc3)c3c(Nc4ccc(F)cc4)ncnc32)OC2(CC2)[C@H]1O` , tested on Rats?
Out: 78

In: Find Carrageenan Paw (% inh) i.p. (Rats) for the entry `O[C@@H]1[C@H](O)CO[C@H]1n1cc(-c2ccccc2)c2c(Nc3ccc(CCN4CCOCC4)cc3)ncnc21`
Out: 21

In: What value of Carrageenan Paw (% inh) i.p. on Rats does O[C@@H]1[C@H](O)CO[C@H]1n1cc(-c2ccccc2)c2c(Nc3ccc(CCN4CCNCC4)cc3)ncnc21 [#43, trihydrochloride salt] have?
Out: 65

* * *

- subject of test: adenosine kinase
- assay remarks: adenosine kinase (AK) inhibition
- measurement setup: 0.5 μM [U-14C] adenosine, pH 7.0, 20 minutes
assay endpoint: log10 IC50 (log10 of the value in nM)
Base-10 log of IC50, unit nM.

In: Entry `O[C@H]1[C@H](n2cc(-c3ccccc3)c3c(Nc4ccc(F)cc4)ncnc32)OC2(CC2)[C@H]1O` : reported log10 IC50 = ?
Out: -0.52

In: Requested read-out: log10 IC50. Entry: `C[C@]1(CO)O[C@@H](n2cc(-c3ccccc3)c3c(Nc4ccccc4)ncnc32)[C@H](O)[C@@H]1O`
Out: 3.30

In: Requested field: log10 IC50. Item: `Nc1ncnc2c1c(I)cn2[C@@H]1OC[C@@H](O)[C@H]1O`
Out: 0.78

In: Given the molecule `O[C@@H]1[C@H](O)CO[C@H]1n1nc(-c2ccc(Cl)cc2)c2c(Nc3ccccc3)ncnc21` , what is its reported log10 IC50?
Out: 1.95

In: Name the reported log10 IC50 value associated with the molecule `O[C@@H]1[C@H](O)CO[C@H]1n1cc(-c2ccccc2)c2c(Nc3ccc(Cl)cc3)ncnc21`
Out: 1.60

In: Look up log10 IC50: `O[C@@H]1[C@H](O)CO[C@H]1n1cc(-c2ccccc2)c2c(Nc3ccc(CCN4CCOCC4)cc3)ncnc21`
Out: 0.00

In: Bench note: what log10 IC50 did `O[C@@H]1[C@H](O)CO[C@H]1n1cc(-c2ccccc2)c2c(Nc3ccccc3)ncnc21` show?
Out: 0.60
